Please provide measured IC50 for the entries that follow.
molecular target: CCR2 receptor (Homo sapiens, UniProt P41597); test: Inhibition of MCP-1 induced Ca-flux in human THP-1 cells; conditions: inhibition of specific MCP-1 (10^-7 M hMCP-1) induced Ca2+ flux in human THP-1 cells; pIC50 = -log IC50 (molar)
Sequence (P41597 1-360 isoform P41597-2): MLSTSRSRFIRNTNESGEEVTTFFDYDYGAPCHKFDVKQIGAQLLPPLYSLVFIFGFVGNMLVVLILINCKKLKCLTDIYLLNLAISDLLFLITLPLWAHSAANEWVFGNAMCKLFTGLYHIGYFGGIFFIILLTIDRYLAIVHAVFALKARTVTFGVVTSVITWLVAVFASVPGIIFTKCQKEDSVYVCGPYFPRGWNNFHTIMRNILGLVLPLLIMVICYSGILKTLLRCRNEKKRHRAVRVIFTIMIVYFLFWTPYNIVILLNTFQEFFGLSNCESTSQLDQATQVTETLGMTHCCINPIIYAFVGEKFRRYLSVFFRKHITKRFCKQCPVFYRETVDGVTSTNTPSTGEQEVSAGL
Answers are plain numbers, in nM.

These recorded examples may help you get a feel for the data.
INSERT INTO measurements (compound, target_or_test_system, unit_abbreviation, measured_result) VALUES
  ('CCCC(c1ccc(Cl)c(Cl)c1)n1c(C(=O)NC)c(C(=O)NC)[nH]c1=S (stereo not shown)', 'CCR2 receptor (Homo sapiens, UniProt P41597)', 'nM', 394),
  ('CC(c1ccc(Cl)c(Cl)c1)n1c(C(N)=O)c[nH]c1=S (stereo not shown)', 'CCR2 receptor (Homo sapiens, UniProt P41597)', 'nM', 1100),
  ('COC(=O)c1[nH]c(=S)n(C(c2ccc(Cl)c(Cl)c2)C2CCCCC2)c1C(=O)OC (stereo not shown)', 'CCR2 receptor (Homo sapiens, UniProt P41597)', 'nM', 440);

Query: Please report the recorded IC50 for CCC(c1ccc(Cl)c(Cl)c1)n1c(C(=O)NC)c(COC)[nH]c1=S (stereo not shown) .
Result: 1780

====

molecular target: UniProt P41597; test: Inhibition of MCP-1 induced Ca-flux in human THP-1 cells; settings: inhibition of specific MCP-1 (10^-7 M hMCP-1) induced Ca2+ flux in human THP-1 cells; pIC50 = -log IC50 (molar)
Value type: IC50 (nM)
Answers are plain numbers, in nM.

These recorded examples may help you get a feel for the data.
INSERT INTO assay_data (compound, unit_abbreviation, measured_result) VALUES
  ('CCC(c1ccc(F)c(F)c1)n1c(C(=O)OC)c(C(=O)OC(C)(C)C)[nH]c1=S (stereo not shown)', 'nM', 2510),
  ('COC(=O)c1[nH]c(=S)n(Cc2ccc(Cl)c(Cl)c2)c1C(=O)OC', 'nM', 35.5),
  ('COC(=O)c1[nH]c(=S)n(C(C)c2ccc(Cl)c(Cl)c2)c1C(=O)OC (stereo not shown)', 'nM', 12.6);

Now for the compound whose IC50 we want.
Query: Please report the recorded IC50 for CC[C@@H](c1ccc(Cl)c(Cl)c1)n1c(C(=O)OC)cnc1S .
Result: 87.1

====

target: CCR2 receptor (Homo sapiens); experiment: Inhibition of MCP-1 induced Ca-flux in human THP-1 cells; details: inhibition of specific MCP-1 (10^-7 M hMCP-1) induced Ca2+ flux in human THP-1 cells; pIC50 = -log IC50 (molar)
Please provide measured pIC50 for the entries that follow.
Numbers only, as −log10 of the molar value.

INSERT INTO measurements (compound, measured_result) VALUES
  ('CCC(c1ccc(Cl)c(Cl)c1)n1c(C(=O)OC(C)C)cnc1S (stereo not drawn)', 6.58),
  ('CCC(c1ccc(F)c(F)c1)n1c(C(=O)OC)c(C(N)=O)[nH]c1=S (stereo not drawn)', 7.23),
  ('CCC(c1ccc(Cl)c(Cl)c1)n1c(C(=O)OC)cnc1S (stereo not drawn)', 6.72),
  ('CCCC(c1ccc(Cl)cc1)n1c(C(=O)OC)c[nH]c1=S (stereo not drawn)', 5.45),
  ('CCC(c1ccc(Cl)c(Cl)c1)n1c(S)nc(C(N)=O)c1C(N)=O (stereo not drawn)', 7.25);

Lab note: each compound below needs its pIC50 filled in.
1. COCC(c1ccc(Cl)c(Cl)c1)n1c(C(=O)OC)c(C(=O)OC)[nH]c1=S (stereo not drawn)
2. CCC(c1ccc(Br)c(Br)c1)n1c(C(N)=O)c[nH]c1=S (stereo not drawn)
3. CCC(c1ccc(Cl)c(Cl)c1)n1c(C(=O)NNC=O)c[nH]c1=S (stereo not drawn)

Result:
1. 7.49
2. 6.75
3. 5.98

Lab note: each compound below needs its pIC50 filled in.
1. COC(=O)c1[nH]c(=S)n(C(c2ccccc2)c2ccc(Cl)c(Cl)c2)c1C(=O)OC (stereo not drawn)
2. CCC(c1ccc(Cl)c(Cl)c1)n1c(C(=O)OC)c(C(=O)NCCO)[nH]c1=S (stereo not drawn)
3. CCC(c1ccc(Cl)c(Cl)c1)n1c(C(=O)OC)c(C(=O)NNC(C)=O)[nH]c1=S (stereo not drawn)
4. CCC(c1ccc(Cl)c(Cl)c1)n1c(C(=O)O)cnc1S (stereo not drawn)
5. COC(=O)c1c[nH]c(=S)n1C(C)c1ccc(Cl)cc1 (stereo not drawn)
6. CCC(c1ccc(F)c(C(F)(F)F)c1)n1c(S)nc(C(=O)OC)c1C(=O)OC (stereo not drawn)

Result:
[6.69, 6.95, 6.73, 5.48, 5.43, 7.76]

Lab note: each compound below needs its pIC50 filled in.
1. CCC(c1cc(F)cc(F)c1)n1c(C(=O)OC)cnc1S (stereo not drawn)
2. CCC(c1ccc(F)c(C(F)(F)F)c1)n1c(C(=O)O)c[nH]c1=S (stereo not drawn)
3. CCC(c1ccc(Cl)c(Cl)c1)n1c(C#N)c(C(=O)OC)[nH]c1=S (stereo not drawn)
4. CCC(c1ccc(Cl)c(Cl)c1)n1c(C(=O)OC)c(C(=O)N2CCOCC2)[nH]c1=S (stereo not drawn)

Result:
5.08
5.63
7.40
5.94

Lab note: each compound below needs its pIC50 filled in.
1. CCC(c1ccc(Cl)c(Cl)c1)n1c(C(=O)NCCO)c(COC)[nH]c1=S (stereo not drawn)
2. COCC(c1ccc(Cl)c(Cl)c1)n1c(C(=O)OC)cnc1S (stereo not drawn)
3. CCC(c1cc(Cl)cc(Cl)c1)n1c(C(=O)OC)c(C(=O)OC)[nH]c1=S (stereo not drawn)
4. CCC(c1ccc(Cl)c(Cl)c1)n1c(C(N)=O)cnc1S (stereo not drawn) [Compound 8]
5. CCC(c1cc(F)c(F)c(F)c1)n1c(C(=O)OC)c[nH]c1=S (stereo not drawn)

Result:
1. 5.92
2. 6.51
3. 5.78
4. 7.46
5. 5.37

====

Please provide measured pIC50 for the entries that follow.
target: CCR2 receptor (Homo sapiens, UniProt P41597); experiment: Inhibition of MCP-1 induced Ca-flux in human THP-1 cells; settings: inhibition of specific MCP-1 (10^-7 M hMCP-1) induced Ca2+ flux in human THP-1 cells; pIC50 = -log IC50 (molar)
Give bare numbers, as −log10 of the molar value.

Lab note: each compound below needs its pIC50 filled in.
1. CCC(c1ccc(F)c(C(F)(F)F)c1)n1c(C(=O)OC)cnc1S (stereo not shown)
2. CCCC(c1ccc(Cl)c(Cl)c1)n1c(C(=O)OC)c(C(N)=O)[nH]c1=S (stereo not shown)
3. CCC(c1ccc(Cl)c(Cl)c1)n1c(C(=O)NN)c[nH]c1=S (stereo not shown)
4. CCC(c1ccc(F)c(F)c1)n1c(C(N)=O)cnc1S (stereo not shown)
5. CCC(c1cc(F)c(F)c(F)c1)n1c(C(N)=O)c[nH]c1=S (stereo not shown)
6. CCCCNC(=O)c1cnc(S)n1C(CC)c1ccc(F)c(F)c1 (stereo not shown)
7. CCC(c1cc(F)c(F)c(F)c1)n1c(C(=O)OC)c(C(=O)OC)[nH]c1=S (stereo not shown)

Result:
1: 6.03; 2: 7.49; 3: 6.61; 4: 6.33; 5: 6.78; 6: 5.50; 7: 7.47

Lab note: each compound below needs its pIC50 filled in.
1. CCOC(=O)c1c(C)[nH]c(=S)n1C(CC)c1ccc(Cl)c(Cl)c1 (stereo not shown)
2. CCC(c1ccc(Cl)c(Cl)c1)n1c(C(=O)O)c(C(=O)O)[nH]c1=S (stereo not shown)
3. CCC(c1ccc(Cl)c(Cl)c1)n1c(C(=O)OC)c(C(=O)N2CCCCC2)[nH]c1=S (stereo not shown)

Result:
[6.58, 5.86, 6.95]

Lab note: each compound below needs its pIC50 filled in.
1. CCCC(c1cccc(Cl)c1)n1c(C(=O)OC)c[nH]c1=S (stereo not shown)
2. CCC(c1ccc(Cl)c(Cl)c1)n1c(C(N)=O)c(COC)[nH]c1=S (stereo not shown)
3. CCC(c1ccc(Cl)c(Cl)c1)n1c(S)nc(COC)c1C(=O)OC (stereo not shown)
4. CCC(c1ccc(F)c(C(F)(F)F)c1)n1c(C(=O)OCCO)cnc1S (stereo not shown)
5. CCC(c1ccc(Cl)c(Cl)c1)n1c(S)nc(C(=O)OC)c1C(=O)OC (stereo not shown)
6. COC(=O)c1cnc(S)n1C(C)c1ccc(Cl)c(Cl)c1 (stereo not shown)
7. COC(=O)c1cnc(S)n1C(C)(C)c1ccc(Cl)c(Cl)c1

Result:
1: 6.05; 2: 6.62; 3: 6.97; 4: 6.64; 5: 8.01; 6: 6.59; 7: 5.32

Lab note: each compound below needs its pIC50 filled in.
1. CCC(c1ccc(Cl)c(Cl)c1)n1cc(C(=O)NC)[nH]c1=S (stereo not shown)
2. CCC(c1ccc(Cl)c(Cl)c1)n1c(S)nc(C(N)=O)c1C#N (stereo not shown)
3. CCC(c1ccc(Cl)c(Cl)c1)n1c(S)nc(C(=O)O)c1C(=O)OC (stereo not shown)
4. CCC(c1ccc(Cl)c(Cl)c1)n1c(C(N)=O)cnc1S (stereo not shown) [Compound 59]
5. COC(=O)c1[nH]c(=S)n(C(c2ccc(Cl)c(Cl)c2)C2CC2)c1C(=O)OC (stereo not shown)
6. CCC(c1ccc(C(F)(F)F)c(F)c1)n1c(S)nc(C(=O)OC)c1C(=O)OC (stereo not shown)

Result:
[5.09, 6.92, 6.08, 7.36, 7.55, 7.05]

Lab note: each compound below needs its pIC50 filled in.
1. CCC(c1ccc(Cl)c(Cl)c1)n1c(C(=O)NNC(C)=O)c[nH]c1=S (stereo not shown)
2. CCC(c1ccc(Cl)c(Cl)c1)n1cc(C(=O)OC)nc1S (stereo not shown)
3. CCC(c1ccc(C)c(C)c1)n1c(C(=O)OC)c(C(=O)OC)[nH]c1=S (stereo not shown)
4. CCC(c1ccc(Cl)c(Cl)c1)n1c(S)nc(C(=O)NC)c1C(=O)OC (stereo not shown)
5. CCC(c1ccc(F)c(F)c1)n1c(S)nc(C(=O)OC)c1C(=O)OC (stereo not shown)

Result:
[6.06, 6.45, 6.46, 7.48, 8.14]

Lab note: each compound below needs its pIC50 filled in.
1. CCC(c1ccc(F)c(C(F)(F)F)c1)n1c(C(N)=O)cnc1S (stereo not shown)
2. CCOC(=O)c1cnc(S)n1C(CC)c1ccc(F)c(C(F)(F)F)c1 (stereo not shown)
3. CC(c1ccc(Cl)c(Cl)c1)n1c(C(N)=O)c(C(N)=O)[nH]c1=S (stereo not shown)
4. CCC(c1ccc(Cl)cc1)n1c(C(=O)OC)cnc1S (stereo not shown)

Result:
[6.69, 6.46, 5.69, 5.33]

Lab note: each compound below needs its pIC50 filled in.
1. COCC(c1ccc(Cl)c(Cl)c1)n1c(C(N)=O)c[nH]c1=S (stereo not shown)
2. CC(c1ccc(Cl)c(Cl)c1)n1cc(C(N)=O)[nH]c1=S (stereo not shown)

Result:
7.07
5.09

Lab note: each compound below needs its pIC50 filled in.
1. CCC(c1ccc(Cl)c(Cl)c1)n1c(S)nc(C(=O)O)c1C#N (stereo not shown)
2. CCC(c1ccc(Br)c(Br)c1)n1c(C(=O)O)c[nH]c1=S (stereo not shown)
3. CCC(=O)c1c[nH]c(=S)n1C(CC)c1ccc(Cl)c(Cl)c1 (stereo not shown)

Result:
6.76
5.47
6.53
